Tested on: DU-145 prostate
PROTOCOL_SUMMARY: NCI tumour cell line growth inhibition, 48 h
RECORDED_METRIC: TGI (µM)

>>> print(df.to_string())
                                   molecule  modifier  reported_result
0  OCCCCCCOc1ccc(-c2cc(-c3ccccn3)nc(-c3ccccn3)c2)cc1         =             7.83
1  Cc1cc2c(c(C=NCc3ccccc3)c1)OC1(C=C2)Oc2ccccc2C(=O)N1C (centres undefined)         =             70.4
2  COC(=O)/N=[N+](\[O-])C(c1ccc(OC)cc1)C1CCCCC1 (centres undefined)         =             10.8
3  CC(=O)Nc1ccc2c3c(cc(O)c2c1)N(C(=O)CCCCC(=O)Nc1ccc2c4c(cc(O)c2c1)N(C(=O)OC(C)(C)C)CC4CCl)CC3CCl (centres undefined)         =             4.39
4  Cn1c(-c2ccc(/C=N\N3CCN(/N=C/c4ccc(-c5c[n+]6ccccc6n5C)cc4)CC3)cc2)c[n+]2ccccc12         >              100
5                  CNC(=S)N/N=C/c1cccc(C)n1         >             83.2
6       O=[N+]([O-])c1cn[n+]([O-])c2ccccc12         =             3.79
7  CCCCOC(=O)C(O)Cc1ccoc1 (centres undefined)         >              100
8  CC12Cc3cc4c(cc3C1(c1ccc([N+](=O)[O-])cc1)OCCO2)OCO4 (centres undefined)         >              100

====

Tested on: U251 CNS
PROTOCOL_SUMMARY: NCI tumour cell line growth inhibition, 48 h
RECORDED_METRIC: TGI

>>> print(df.to_string())
                                   compound  assayed_system  reported_result
0  CCCCCCCCCCCCCCCC(=O)OCC1OC(n2c(O)c(N=NC(N)=S)c3ccc([N+](=O)[O-])cc32)C(OC(C)=O)C1OC(C)=O (stereo not given)        U251 CNS         > 100 µM
1  O=C1C(Cl)=C(Nc2cccc(O)c2)C(=O)N1c1cc(Cl)c(Cl)cc1Cl        U251 CNS          27.3 µM
2                CN(C)c1ccc(N=Nc2ccccn2)cc1        U251 CNS            33 µM
3  CC(C)C1OC(=O)/C=C/C=C/C=C/C=C/C=C/CC(O)CC(O)CC(O)CC(O)CC(O)CC(O)CC(O)CC(O)/C=C/C1C (stereo not given)        U251 CNS         > 100 µM
4                  CC1S(=O)(=O)OCCOS1(=O)=O        U251 CNS         > 100 µM
5            CCCCCCCCCc1cc(=O)c2ccc(O)cc2o1        U251 CNS         > 100 µM
6  S=c1[nH]c(=S)c2cc(Sc3ccc4[nH]c(=S)[nH]c(=S)c4c3)ccc2[nH]1        U251 CNS         > 100 µM
7  C[C@@H]1CN(CC(=O)N2CC(C)(C)c3nc(CO)c(Cc4ccc(F)cc4)cc32)[C@@H](CN2CCOC[C@H]2C)CN1        U251 CNS         > 100 µM
8  CC12Cc3cc4c(cc3C1(c1ccc([N+](=O)[O-])cc1)OCCO2)OCO4 (stereo not given)        U251 CNS         > 100 µM
9  CCC(CCCC[C@@H]1CC[C@H]2CC(=O)C[C@@H]12)OC (stereo not given in full)        U251 CNS         > 100 µM

Origin of the recorded values: PubChem BioAssay (NCI)
